- TARGET OR TEST SYSTEM: T1, soluble human CD3 epsilon chain (human, UniProt P07766 23-126)
- T1 construct: also called CD3ε
- T1 sequence (P07766 23-126 limits assumed): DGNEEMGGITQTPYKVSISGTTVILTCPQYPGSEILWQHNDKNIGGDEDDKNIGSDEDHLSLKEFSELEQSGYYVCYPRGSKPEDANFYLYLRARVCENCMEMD
- METHOD DESCRIPTION: SPR
Could you please report measured log10(Kd) for the items listed next?
Please note: log10 values; quantity Kd; unit nM.

Worked cases, log10(Kd) given:
BINDER	READING
TR01H040-E22Hh/none-Hi-Kn010G3/L0227-k0 (antibody, V domains shown, one-arm) VH: QVQLVESGGGLVQPGRSLRLSCAASGFTFSNAWMHWVRQAPGKGLEWVAQIKDKSQNYATYYAESVKGRFTISRADSKNSIYLQMNSLKTEDTAVYYCRYVHYSASYGVDAWGQGTTVTVSS VL: DIVMTQSPLSLPVTPGEPASISCRSSQSPVHSNRNTYIHWYQQKPGQAPRLLIYKVSNRFSGVPDRFSGSGSGTDFTLKISRVEAEDVGVYYCLQGTQVPYTFGQGTKLEIK	2.00
TR01H040-E22Hh/none-Hi-Kn010G3/L0239-k0 (antibody, V domains shown, one-arm) VH: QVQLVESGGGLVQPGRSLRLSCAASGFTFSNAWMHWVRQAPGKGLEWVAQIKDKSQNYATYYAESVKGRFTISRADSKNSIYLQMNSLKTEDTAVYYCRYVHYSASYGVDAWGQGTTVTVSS VL: DIVMTQSPLSLPVTPGEPASISCRSSESPVHSNRNTYLHWYQQKPGQAPRLLIYKVSNRFRGVPDRFSGSGSGTDFTLKISRVEAEDVGVYYCGQGTQVPYTFGQGTKLEIK	1.36
TR01H039-E22Hh/none-Hi-Kn010G3/L0000-k0 (antibody, V domains shown, one-arm) VH: QVQLVESGGGLVQPGRSLRLSCAASGFTFSNAWMHWVRQAPGKGLEWVAQIKDKSQNYATYYAESVKGRFTISRADSKNSIYLQMNSLKTEDTAVYYCRYVHYSASYGVDIWGQGTTVTVSS VL: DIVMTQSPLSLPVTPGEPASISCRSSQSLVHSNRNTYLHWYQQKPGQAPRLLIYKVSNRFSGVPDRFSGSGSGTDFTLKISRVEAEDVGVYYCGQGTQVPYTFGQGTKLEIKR	1.42

# map each binder to its log10(Kd)
1. TR01H083-E22Hh/none-Hi-Kn010G3/L0212-k0 (antibody, V domains shown, one-arm) VH: QVQLVESGGGLVQPGRSLRLSCAASGFTFSNAWMHWVRQAPGKGLEWVAQIKDKSNNYATYYAESVKGRFTISRADSKNSIYLQMNSLKTEDTAVYYCRYVHYAAGYGVDIWGQGTTVTVSS VL: DIVMTQSPLSLPVTPGEPASISCRPSQSPVHSNRNTYLHWYQQKPGQAPRLLIYKVSNRFSGVPDRFSGSGSGTDFTLKISRVEAEDVGVYYCYQGTQVPYTFGQGTKLEIKR
2. TR01H082-E22Hh/none-Hi-Kn010G3/TR01L018-k0 (antibody, V domains shown, one-arm) VH: QVQLVESGGGLVQPGRSLRLSCAASGFTFSNAWMHWVRQAPGKGLEWVAQIKDKSQNYATYYAESVKGRFTISRDDSKNSLYLQMNSLKTEDTAVYYCRYVHYAAGYGVDAWGQGTTVTVSS VL: DIVMTQSPLSLPVTPGEPASISCQASESPVHSNRNTYLHWYLQKPGQSPQLLIYKVSNRFSGVPDRFSGSGSGTDFTLKISRVEAEDVGVYYCGQGTQVPYTFGQGTKLEIK
3. TR01H040-E22Hh/none-Hi-Kn010G3/L0250-k0 (antibody, V domains shown, one-arm) VH: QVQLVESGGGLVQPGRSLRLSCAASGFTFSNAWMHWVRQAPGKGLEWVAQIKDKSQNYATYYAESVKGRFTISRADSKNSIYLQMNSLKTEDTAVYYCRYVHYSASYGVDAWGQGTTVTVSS VL: DIVMTQSPLSLPVTPGEPASISCRPSQSPVHSNRNTYIQWYQQKPGQAPRLLIYKVSNRFSGVPDRFSGSGSGTDFTLKISRVEAEDVGVYYCIQGTQVPYTFGQGTKLEIK
4. TR01H067-E22Hh/none-Hi-Kn010G3/L0000-k0 (antibody, V domains shown, one-arm) VH: QVQLVESGGGLVQPGRSLRLSCAASGFTFSNAWMHWVRQAPGKGLEWVAQIKDKSQNYATYYAESVKGRFTISRDDSKNSLYLQMNSLKTEDTAVYYCRYVHYAASYGVDAWGQGTTVTVSS VL: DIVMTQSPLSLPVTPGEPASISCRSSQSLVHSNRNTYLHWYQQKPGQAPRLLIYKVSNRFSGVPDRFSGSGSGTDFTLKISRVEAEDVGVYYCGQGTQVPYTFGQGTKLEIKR
5. TR01H067-E22Hh/none-Hi-Kn010G3/L0200-k0 (antibody, V domains shown, one-arm) VH: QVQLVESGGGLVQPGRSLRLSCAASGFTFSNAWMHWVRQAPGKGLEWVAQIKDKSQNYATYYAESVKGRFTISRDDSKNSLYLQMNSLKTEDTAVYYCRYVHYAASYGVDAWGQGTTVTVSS VL: DIVMTQSPLSLPVTPGEPASISCRPSQSPVHSNRNTYLHWYQQKPGQAPRLLIYKVSNRFSGVPDRFSGSGSGTDFTLKISRVEAEDVGVYYCGQGTQVPYTFGQGTKLEIK
6. TR01H077-E22Hh/none-Hi-Kn010G3/L0200-k0 (antibody, V domains shown, one-arm) VH: QVQLVESGGGLVQPGRSLRLSCAASGFTFSNAWMHWVRQAPGKGLEWVAQIKDKSNNYATYYAESVKGRFTISRADSKNSIYLQMNSLKTEDTAVYYCRYVHYAAAEMVRDDIWGQGTTVTVSS VL: DIVMTQSPLSLPVTPGEPASISCRPSQSPVHSNRNTYLHWYQQKPGQAPRLLIYKVSNRFSGVPDRFSGSGSGTDFTLKISRVEAEDVGVYYCGQGTQVPYTFGQGTKLEIK
7. TR01H040-E22Hh/none-Hi-Kn010G3/L0249-k0 (antibody, V domains shown, one-arm) VH: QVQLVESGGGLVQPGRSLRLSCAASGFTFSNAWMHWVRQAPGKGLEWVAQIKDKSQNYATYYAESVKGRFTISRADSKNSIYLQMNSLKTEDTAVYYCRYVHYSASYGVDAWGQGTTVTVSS VL: DIVMTQSPLSLPVTPGEPASISCRPSQSPVHSNRNTYIQWYQQKPGQAPRLLIYKVSNRFSGVPDRFSGSGSGTDFTLKISRVEAEDVGVYYCSQGTQVPYTFGQGTKLEIK

[-1.23, 1.67, 1.33, 1.85, 1.78, 0.79, 2.05]
